Kd reference
system-under-test: T1, insulin-like growth factor II (IGF-II), amino acids 1-67 (human, UniProt P01344 25-91)
T1 construct: recombinant; also called IGF-II (67aa); IGF2
T1 sequence (P01344 25-91): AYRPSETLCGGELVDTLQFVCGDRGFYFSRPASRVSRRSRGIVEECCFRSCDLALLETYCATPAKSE
protocol-notes: competition SPR (BIACORE T100), affinity in solution, free ligand read on huIR-A ECD; measurement 1
The reply should be a number in nM, with the unit left off.

Recorded Kd, per entry:
M0072-G06 Fab (Fab, V domains shown, soluble Fab (sFab); also called R0032-C05) VH: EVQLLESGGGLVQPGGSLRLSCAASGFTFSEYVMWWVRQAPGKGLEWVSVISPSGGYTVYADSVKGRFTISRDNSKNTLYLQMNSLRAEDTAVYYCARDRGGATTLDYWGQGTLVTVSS VL: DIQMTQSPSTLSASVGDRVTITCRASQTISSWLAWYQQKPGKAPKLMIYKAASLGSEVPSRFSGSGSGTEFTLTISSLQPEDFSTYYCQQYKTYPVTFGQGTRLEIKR    3.99
M0063-F02 Fab (Fab, V domains shown, soluble Fab (sFab); also called R0032-A01) VH: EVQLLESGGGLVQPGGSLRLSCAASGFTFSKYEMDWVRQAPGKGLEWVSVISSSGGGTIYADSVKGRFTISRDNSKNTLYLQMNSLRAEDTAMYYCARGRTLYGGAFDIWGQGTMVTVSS VL: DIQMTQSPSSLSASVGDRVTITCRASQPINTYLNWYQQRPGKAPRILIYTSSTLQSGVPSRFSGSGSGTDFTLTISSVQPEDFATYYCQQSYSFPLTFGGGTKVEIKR    1.17
M0064-E04 Fab (Fab, V domains shown, soluble Fab (sFab); also called R0032-A03; 566A-M0064-E04) VH: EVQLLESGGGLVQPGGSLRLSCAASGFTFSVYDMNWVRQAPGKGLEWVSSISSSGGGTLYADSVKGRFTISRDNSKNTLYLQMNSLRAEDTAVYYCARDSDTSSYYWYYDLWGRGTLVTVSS VL: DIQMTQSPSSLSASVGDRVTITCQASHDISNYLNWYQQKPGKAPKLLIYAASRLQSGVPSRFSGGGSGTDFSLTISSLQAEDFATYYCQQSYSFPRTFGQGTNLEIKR    0.608

Continue with the next binder.
Any idea what Kd was measured for M0064-F02 Fab (Fab, V domains shown, soluble Fab (sFab); also the Fab crystallised with IGF-II; also called R0032-A11; 566A-M0064-F02) VH: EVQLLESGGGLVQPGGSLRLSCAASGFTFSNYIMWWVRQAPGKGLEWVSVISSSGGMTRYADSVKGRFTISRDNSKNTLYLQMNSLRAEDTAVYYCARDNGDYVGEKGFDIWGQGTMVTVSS VL: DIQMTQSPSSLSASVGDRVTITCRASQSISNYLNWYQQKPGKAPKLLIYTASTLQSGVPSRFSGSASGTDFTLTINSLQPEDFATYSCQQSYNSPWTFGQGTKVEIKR ?
1.03

Origin of values: patent US20110165145A1
